target.or.system: MMP-13 (Homo sapiens, UniProt P45452)
Construct: made in house; host or cells: baculovirus / insect cells
protocol.text: biochemical
run.conditions: recombinant human MMP-13, MCA peptide substrate 4 μM, pH 7.5, room temperature; read-out: MMP-13 IC50
compounds and their reported IC50

- compound: "O=C(NO)C1(S(=O)(=O)c2ccc(N3CCN(S(=O)(=O)c4ccc(C(F)(F)F)cc4)CC3)cc2)CCOCC1 [Example 677]"
  IC50: "7 nM"
- compound: "O=C(NO)C1(S(=O)(=O)c2ccc(N3CCN(S(=O)(=O)c4ccccc4OC(F)(F)F)CC3)cc2)CCOCC1 [Example 673]"
  IC50: "14.8 nM"
- compound: "O=C(NO)C1(S(=O)(=O)c2ccc(N3CC[C@@H](OCc4cccc(C(F)(F)F)c4)C3)cc2)CCOCC1 [Example 532]"
  IC50: "10 nM"
- compound: "C=C(C)c1ccc(N2CCN(c3ccc(S(=O)(=O)C4(C(=O)NO)CCN(C5CC5)CC4)cc3)CC2)cc1 [Example 360]"
  IC50: "10 nM"
- compound: "COc1ccc(NC(=O)C2CCN(c3ccc(S(=O)(=O)C4(C(=O)NO)CCOCC4)cc3)CC2)cc1 [Example 76]"
  IC50: "9 nM"
